Sourced from paper PMC3447335

Kindly supply the reported IC50 values for the records listed here.
Test system: MRSA
Experiment: Microbroth dilution antibiotic susceptibility assay
Type: cell-based
Settings: Staphylococcus aureus, microbroth dilution, read-out: IC50 MRSA
Give bare numbers, in µg/mL.

CC(C)=C[C@@H]1C[C@H](C)[C@H]2CC[C@H](C)c3c(O)c(O)c(C)c1c32 [Compound 4, pseudopterosin G–J aglycone] | 88

Now look at this one.
Field request: IC50 | item: CCCCCOc1c(C)c2c3c(c1O)[C@@H](C)CC[C@@H]3[C@@H](C)C[C@H]2C=C(C)C [Compound 8, 10-Pentoxy-pseudopterosin G–J Aglycone]
47

----------
Tested on: M. tuberculosis H37Rv (ATCC 27294)
Experiment: Microplate Alamar blue assay (MABA)
Format: cell-based, Mycobacterium tuberculosis
Settings: Mycobacterium tuberculosis; M. tuberculosis H37Rv (ATCC 27294), replicating; read-out: MABA MIC
Entry class follows MIC: bin 1 (below 20 µg/mL), bin 2 (20 µg/mL to below 60 µg/mL), bin 3 (60 µg/mL or more)

Observe how each entry below is paired with its result.
COC(=O)CCc1nc2c(C)c3c4c(c2o1)C(C)CCC4C(C)CC3C=C(C)C (stereo not drawn) | bin 3
CO[C@H]1/C=C/O[C@@]2(C)Oc3c(C)c(O)c4c(O)c(c(/C=N/N5CCN(C)CC5)c(O)c4c3C2=O)NC(=O)/C(C)=C\C=C\[C@H](C)[C@H](O)[C@@H](C)[C@@H](O)[C@@H](C)[C@H](OC(C)=O)[C@@H]1C [Rifampin, reference compound] | bin 1
COc1c(C)c2c3c(c1O)[C@@H](C)CC[C@@H]3[C@@H](C)C[C@H]2C=C(C)C | bin 2

Just checking, what class would you give `COc1c(C)c2c3c(c1OC(=O)N(C)C)[C@@H](C)CC[C@@H]3[C@@H](C)C[C@H]2C=C(C)C` here?
bin 3

Just checking, what class would you give `CC(C)=C[C@@H]1C[C@H](C)[C@H]2CC[C@H](C)c3c2c1c(C)c1ocnc31` here?
bin 1

Just checking, what class would you give O=[N+]([O-])c1cn2c(n1)OC[C@@H](OCc1ccc(OC(F)(F)F)cc1)C2 [PA824, reference compound] here?
bin 1

Just checking, what class would you give `CC(C)=C[C@@H]1C[C@H](C)[C@H]2CC[C@H](C)c3c2c1c(C)c1ncoc31` here?
bin 1

Just checking, what class would you give `COc1ccc(CC=C(C)C)c(OC)c1O` here?
bin 3

Just checking, what class would you give `COc1c(O)c(OC)c(CC=C(C)C)c(CC=C(C)C)c1CC=C(C)C` here?
bin 2

Just checking, what class would you give CC(C)=CC1CC(C)C2CCC(C)c3c2c1c(C)c1nc(C)oc31 (stereo not drawn) here?
bin 1

Just checking, what class would you give `CC(C)=C[C@@H]1C[C@H](C)[C@H]2CC[C@H](C)c3c2c1c(C)c1nccnc31` here?
bin 2

Just checking, what class would you give `CCCCCc1nc2c(C)c3c4c(c2o1)[C@@H](C)CC[C@@H]4[C@@H](C)C[C@H]3C=C(C)C` here?
bin 3

Just checking, what class would you give CC(C)=CC1CC(C)C2CCC(C)c3c2c1c(C)c1nc(Cc2cnc[nH]2)oc31 (stereo not drawn) here?
bin 1

----------
Test system: M. diernhoferi (ATCC 19340)
Test: Microbroth dilution antibiotic susceptibility assay
Type: cell-based
Conditions: Mycolicibacterium diernhoferi, ATCC19340; microbroth dilution; read-out: MIC M. diernhoferi
attributeMeasured: MIC (µg/mL)
Give bare numbers, in µg/mL.

CC(C)=C[C@@H]1C[C@H](C)[C@H]2CC[C@H](C)c3c2c1c(C)c1nccnc31 | 64
COc1ccc(CC=C(C)C)c(OC)c1O | 64
CC(C)=CC1CC(C)C2CCC(C)c3c2c1c(C)c1nc(Cc2cnc[nH]2)oc31 (stereo not drawn) | 2
COc1c(O)c(OC)c(CC=C(C)C)c(CC=C(C)C)c1CC=C(C)C | 8

Batch: MIC for all items listed.
1. COc1c(C)c2c3c(c1O)[C@@H](C)CC[C@@H]3[C@@H](C)C[C@H]2C=C(C)C
2. CO[C@H]1/C=C/O[C@@]2(C)Oc3c(C)c(O)c4c(O)c(c(/C=N/N5CCN(C)CC5)c(O)c4c3C2=O)NC(=O)/C(C)=C\C=C\[C@H](C)[C@H](O)[C@@H](C)[C@@H](O)[C@@H](C)[C@H](OC(C)=O)[C@@H]1C [Rifampin, reference compound]
3. CC(C)=C[C@@H]1C[C@H](C)[C@H]2CC[C@H](C)c3c(O)c(O)c(C)c1c32
4. COc1cc(CC=C(C)C)c(CC=C(C)C)c(OC)c1O

[4, 4, 8, 8]

----------
Tested on: M. tuberculosis H37Rv (ATCC 27294)
Assay: microbe, parasite or virus in culture
Assay type: cell-based, Mycobacterium tuberculosis
Conditions: Mycobacterium tuberculosis; % inhibition at 64 μg/mL; read-out: LORA % inh
attributeMeasured: inhibition at 64 µg/mL

COc1c(O)c(OC)c(CC=C(C)C)c(CC=C(C)C)c1CC=C(C)C [Compound 16] | 79.7%
CCC(C)c1nc2c(C)c3c4c(c2o1)C(C)CCC4C(C)CC3C=C(C)C (stereo not shown) [Compound 26] | 59.1%
COc1ccccc1-c1nc2c(C)c3c4c(c2o1)C(C)CCC4C(C)CC3C=C(C)C (stereo not shown) [Compound 23] | 83.3%

Now look at this one.
Field request: inhibition at 64 µg/mL | item: COC(=O)CCc1nc2c(C)c3c4c(c2o1)C(C)CCC4C(C)CC3C=C(C)C (stereo not shown) [Compound 30]
99.1%

----------
Test system: MRSA
Assay: Microbroth dilution antibiotic susceptibility assay
Assay type: cell-based
Details: Staphylococcus aureus, read-out: IC50 MRSA
attributeMeasured: IC50

Solved cases below.
COc1ccc(CC=C(C)C)c(OC)c1O[C@@H]1O[C@H](CO)[C@H](O)[C@H](O)[C@H]1O | > 128 µg/mL
CN[C@H](CC(C)C)C(=O)N[C@H]1C(=O)N[C@@H](CC(N)=O)C(=O)N[C@H]2C(=O)N[C@H]3C(=O)N[C@H](C(=O)N[C@H](C(=O)O)c4cc(O)cc(O)c4-c4cc3ccc4O)[C@H](O)c3ccc(c(Cl)c3)Oc3cc2cc(c3O[C@@H]2O[C@H](CO)[C@@H](O)[C@H](O)[C@H]2O[C@H]2C[C@](C)(N)[C@H](O)[C@H](C)O2)Oc2ccc(cc2Cl)[C@H]1O [Vancomycin, reference compound] | 1.23 µg/mL

Field request: IC50 | item: `COc1ccc(CC=C(C)C)c(OC)c1O`
> 128 µg/mL

----------
Kindly supply the reported IC50 values for the records listed here.
Tested on: MRSA
Test: Microbroth dilution antibiotic susceptibility assay
Format: cell-based
Settings: Staphylococcus aureus, read-out: IC50 MRSA
Give bare numbers, in µg/mL.

COc1cc(CC=C(C)C)c(CC=C(C)C)c(OC)c1O | 20

Now look at this one.
Field request: IC50 | item: CC(C)=CC1CC(C)C2CCC(C)c3c2c1c(C)c1nc(Cc2cnc[nH]2)oc31 (stereo not shown)
3

----------
Kindly supply the reported IC50 values for the records listed here.
Test system: MRSA
Experiment: Microbroth dilution antibiotic susceptibility assay
Format: cell-based
Settings: Staphylococcus aureus, microbroth dilution, read-out: IC50 MRSA

COc1c(C)c2c3c(c1O)[C@@H](C)CC[C@@H]3[C@@H](C)C[C@H]2C=C(C)C | 9 mg/L
COc1c(C)c2c3c(c1OC)[C@@H](C)CC[C@@H]3[C@@H](C)C[C@H]2C=C(C)C | > 128 mg/L

Now look at this one.
Field request: IC50 | item: `CC(C)=C[C@@H]1C[C@H](C)[C@H]2CC[C@H](C)c3c2c1c(C)c1nccnc31`
> 128 mg/L

----------
Test system: M. tuberculosis H37Rv (ATCC 27294)
Assay: microbe, parasite or virus in culture
Format: cell-based, Mycobacterium tuberculosis
Conditions: Mycobacterium tuberculosis; % inhibition at 64 μg/mL; read-out: LORA % inh
If the reported inhibition at 64 µg/mL equals or exceeds 90%, assign class 1. If not, assign class 0.

CC(C)=CC1CC(C)C2CCC(C)c3c2c1c(C)c1nc(-c2ccc(F)cc2)oc31 (stereo not shown) [Compound 24] | class 0

Could you verify whether the entry COc1ccc(CC=C(C)C)c(OC)c1O[C@@H]1O[C@H](CO)[C@H](O)[C@H](O)[C@H]1O [Compound 20] shows inhibition at 64 µg/mL of no less than 90%?
class 0

Could you verify whether the entry COc1cc(CC=C(C)C)c(CC=C(C)C)c(OC)c1O [Compound 15] shows inhibition at 64 µg/mL of no less than 90%?
class 1

Could you verify whether the entry CC(C)=C[C@@H]1C[C@H](C)[C@H]2CC[C@H](C)c3c2c1c(C)c1nccnc31 [Compound 5, Pseudopteroquinoxaline] shows inhibition at 64 µg/mL of no less than 90%?
class 1

Could you verify whether the entry CC(C)=CC1CC(C)C2CCC(C)c3c2c1c(C)c1nc(CC(N)=O)oc31 (stereo not shown) [Compound 33] shows inhibition at 64 µg/mL of no less than 90%?
class 1

Could you verify whether the entry COc1c(C)c2c3c(c1OS(=O)(=O)C(F)(F)F)[C@@H](C)CC[C@@H]3[C@@H](C)C[C@H]2C=C(C)C [Compound 11] shows inhibition at 64 µg/mL of no less than 90%?
class 0
